# Tested on: Mouse microglia
# assay overview: NO production (Griess assay), LPS/IFNγ-activated mouse microglia
# Assay type: cell-based
# condition notes: 10 μM, 24 hours, 1 μM GABA, LPS/IFNγ
metric name: Inhibition of NO production (%) Mouse microglia 10 μM
Don't forget the unit after the value.

Check out these entries, answers already filled in.
[
  {
    "compound": "C#Cc1ccc2c(c1)C(c1ccccc1F)=NC(C)c1c(C(=S)NC3CC3)ncn1-2 (stereo not shown) [GL-III-87]",
    "result": "23 ± 7%"
  },
  {
    "compound": "CC1N=C(c2ccccc2F)c2cc(Br)ccc2-n2cnc(C=O)c21 (stereo not shown) [GL-III-35]",
    "result": "17 ± 7%"
  },
  {
    "compound": "O=C(O)c1ncn2c1CN=C(c1ccccc1)c1cc(Br)ccc1-2 [GL-I-50]",
    "result": "33 ± 6%"
  }
]

Input line: Fill in: Inhibition of NO production (%) Mouse microglia 10 μM of C#Cc1ccc2c(c1)C(c1ccccc1)=NCc1c(C(=O)OCCCO)ncn1-2 [GL-I-48] is ___
Output line: 0 ± 4%

Input line: Fill in: Inhibition of NO production (%) Mouse microglia 10 μM of C#Cc1ccc2c(c1)C(c1ccccc1F)=NCc1c(C(=O)OCCCO)ncn1-2 [GL-II-80] is ___
Output line: 38 ± 8%

Input line: Fill in: Inhibition of NO production (%) Mouse microglia 10 μM of C#Cc1ccc2c(c1)C(c1ccccn1)=NC(C)C(=O)N2C (stereo not shown) [GL-II-61] is ___
Output line: 28 ± 2%

Input line: Fill in: Inhibition of NO production (%) Mouse microglia 10 μM of C#Cc1ccc2c(c1)C(c1ccccc1F)=N[C@H](C)C(=O)N2 [GL-I-62] is ___
Output line: 13 ± 7%

Input line: Fill in: Inhibition of NO production (%) Mouse microglia 10 μM of CC1N=C(c2ccccc2F)c2cc(Br)ccc2-n2cnc(C(=O)[O-])c21.[Na+] (stereo not shown) [GL-IV-18] is ___
Output line: 63 ± 9%

Input line: Fill in: Inhibition of NO production (%) Mouse microglia 10 μM of CCNC(=O)c1ncn2c1[C@@H](C)N=C(c1ccccc1F)c1cc(Br)ccc1-2 [GL-III-67] is ___
Output line: 33 ± 1%

Input line: Fill in: Inhibition of NO production (%) Mouse microglia 10 μM of C#Cc1ccc2c(c1)C(c1ccccc1F)=NCc1c(C(=O)O)ncn1-2 [GL-II-79] is ___
Output line: 44 ± 6%

Input line: Fill in: Inhibition of NO production (%) Mouse microglia 10 μM of CC1N=C(c2ccccc2F)c2cc(Cl)ccc2NC1=O (stereo not shown) [GL-III-52] is ___
Output line: 57 ± 11%

Input line: Fill in: Inhibition of NO production (%) Mouse microglia 10 μM of C#Cc1ccc2c(c1)C(c1ccccn1)=N[C@H](C)C(=O)N2 [GL-III-27] is ___
Output line: 29 ± 8%

Input line: Fill in: Inhibition of NO production (%) Mouse microglia 10 μM of C#Cc1ccc2c(c1)C(c1ccccc1)=NCC(=O)N2C [QH-II-66] is ___
Output line: 54 ± 9%

###

# Tested on: BZR (benzodiazepine site of GABAAR)
# assay overview: GABAAR/BZR binding, rat brain homogenate with 3H-flunitrazepam
# condition notes: Percent inhibition at 10,000 nM; rat brain homogenate, 3H-flunitrazepam
Measured BZR % of individual entries

Check out these entries, answers already filled in.
[
  {
    "compound": "C#Cc1ccc2c(c1)C(c1ccccc1F)=N[C@@H](C)c1c(C(=O)N(C)C)ncn1-2",
    "metric name": "BZR %",
    "result": "94%"
  },
  {
    "compound": "C#Cc1ccc2c(c1)C(c1ccccc1F)=N[C@H](C)c1c(C(=O)OCC)ncn1-2",
    "metric name": "BZR %",
    "result": "85%"
  },
  {
    "compound": "CCNC(=O)c1ncn2c1[C@@H](C)N=C(c1ccccc1F)c1cc(C3CC3)ccc1-2",
    "metric name": "BZR %",
    "result": "100%"
  },
  {
    "compound": "C#Cc1ccc2c(c1)C(c1ccccc1F)=N[C@@H](C)c1c(C(=O)OCC(F)(F)F)ncn1-2",
    "metric name": "BZR %",
    "result": "77%"
  }
]

Input line: Fill in: BZR % of CCc1noc(-c2ncn3c2[C@@H](C)N=C(c2ccccc2F)c2cc(C4CC4)ccc2-3)n1 is ___
Output line: 65%

Input line: Fill in: BZR % of C#Cc1ccc2c(c1)C(c1ccccc1F)=N[C@@H](C)c1c(C(=O)NC(C)(C)C)ncn1-2 is ___
Output line: 90%

Input line: Fill in: BZR % of C#Cc1ccc2c(c1)C(c1ccccc1F)=N[C@@H](C)c1c(C(=O)OCCC)ncn1-2 is ___
Output line: 98%

Input line: Fill in: BZR % of C#Cc1ccc2c(c1)C(c1ccccn1)=NCc1c(-c3cnco3)ncn1-2 [KRM-III-67] is ___
Output line: 71%

Input line: Fill in: BZR % of C#Cc1ccc2c(c1)C(c1ccccc1F)=NCc1c(-c3cnco3)ncn1-2 [KRM-II-18B] is ___
Output line: 97%

Input line: Fill in: BZR % of CCOC(=O)c1ncn2c1[C@@H](C)N=C(c1ccccc1F)c1cc(Br)ccc1-2 is ___
Output line: 84%

Input line: Fill in: BZR % of C[C@H]1N=C(c2ccccn2)c2cc(Br)ccc2-n2cnc(C(=O)O)c21 is ___
Output line: 84%

Input line: Fill in: BZR % of Fc1ccccc1C1=NCc2c(-c3cnco3)ncn2-c2ccc(Br)cc21 is ___
Output line: 99%
